Test: Half-life in male C57BL/6J mouse at 10 mg/kg, po by LC-MS analysis
Format: ADME, organism-based
Conditions: in vivo
endpoint: half-life
Reply with the number and its unit after it.

Task: Give half-life for the following compound: CCCCC(=O)N1CC2(C1)CN(c1ccccc1-c1nnn[nH]1)C2
Result: 2.57 h

---

We begin with a simple list: items and their reported remaining at 1 h.
Test: Metabolic stability in Sprague-Dawley rat liver microsomes assessed as parent compound remaining measured upto 60 mins in presence of NADPH by HPLC analysis
Assay type: ADME, Microsome
Conditions: read-out: Stability
Give the value in % but do not write % after it.

Task: Fill in reported remaining at 1 h for this entry: CCCCC(=O)N1CCC2(CC1)CCN(c1ccccc1-c1nnn[nH]1)C2
Result: 99.8

Task: Please give measured remaining at 1 h of the following entry: CCCCC(=O)N(Cc1ccc(-c2ccccc2C(=O)O)cc1)c1ccccc1
Result: 66

Task: Item CCCCC(=O)N1CC2(C1)CN(c1ccccc1-c1nnn[nH]1)C2 : provide remaining at 1 h
Result: 97.5

Task: Return reported remaining at 1 h. Input compound: CCc1nnc(N2Cc3ccc(-c4ccccc4-c4nnn[nH]4)cc3C2)o1
Result: 101

Task: // Input: CCc1cnc(N2Cc3ccc(-c4ccccc4-c4nnn[nH]4)cc3C2)s1 . Output its remaining at 1 h only.
Result: 89
